Assay: NFAT Signaling Pathway (AID 444);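 also: carbachol stimulus at about its EC50 of 1 µM final; % is scaled to controls: 0 for no effect and ±100 for the full control effect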
Settings: Jurkat NFAT-bla M1, carbachol, beta-lactamase ratio, 5 h; at 7.69 µM (top of the series) unless noted
Results filed as inconclusive are left out. Activity calls are given as the source filed them. Calls follow the shape of the dose curve; as a rule, active = well fitted curve in either direction with a large enough effect (not every such curve was filed as active); inconclusive = small, poorly fitted or top-dose-only effect, or another doubt; inactive = flat fitted curve, though single readings scatter.
measurementName: activity change, negative = inhibition

Answered cases to consult:
# compound, activity change, negative = inhibition
records = [
    ("N/C(CC(=O)Nc1cc(C(F)(F)F)ccc1Cl)=N\\O", "11.5% (inactive)"),
    ("CC(C)C1=C[C@@]23CC[C@@H]4[C@](C)(CCC[C@@]4(C)C(=O)O)[C@@H]2C[C@@H]1[C@@H](C(=O)O)[C@@H]3C(=O)O", "4.67% (inactive)"),
]

Indicate the recorded activity change, negative = inhibition value for this compound: CC1=C/C(=N/O)C([C@H]2C=C(C)CC(C)(C)[C@@H]2O)C(C)(C)C1 (stereo partly drawn)
-18% (inactive)

Indicate the recorded activity change, negative = inhibition value for this compound: CC(=O)[C@@]1(N=Nc2ccc(S(N)(=O)=O)cc2)CCOC1=O
5.28% (inactive)

Indicate the recorded activity change, negative = inhibition value for this compound: O=C(O)CNC(=O)[C@H]1NC(C(F)(F)F)(C(F)(F)F)OC1(C(F)(F)F)C(F)(F)F
10.9% (inactive)

Indicate the recorded activity change, negative = inhibition value for this compound: Cc1cc(=O)[nH]c2cc3oc4ccccc4c3cc12
8.67% (inactive)

Indicate the recorded activity change, negative = inhibition value for this compound: O=C(O)[C@@H]1[C@@H]2C[C@H]([C@@H](Br)[C@H]2N2C(=O)CCC2=O)[C@@H]1C(=O)O
10.6% (inactive)

Indicate the recorded activity change, negative = inhibition value for this compound: N[C@@H](CSC1(c2ccc(Cl)cc2)c2ccccc2-c2ccccc21)C(=O)O
10.1% (inactive)

Indicate the recorded activity change, negative = inhibition value for this compound: N#C/C(=C\N1CCNC1=S)C(=O)c1ccc2ccccc2c1
5.58% (inactive)
